Origin of the recorded values: PubChem BioAssay AID1845228

conditionDetails: pampa; 60.0 min; 50.0 µM
// reported Papp for each item listed

# moleculeSmiles, unit, censorSymbol, Papp
rows = [
    ("CC(=O)NCCNC(=O)c1ccc(-c2ncc3cnc(-c4cccc(F)c4)cn23)cc1", "×10⁻⁶ cm/s", "=", 11),
    ("Cc1[nH]c2ccccc2c1CCNCc1ccc(C=CC(=O)NO)cc1", "×10⁻⁶ cm/s", "<", 1),
    ("Oc1ccc2nc(CN3CCC(Cc4ccccc4F)CC3)[nH]c2c1", "×10⁻⁶ cm/s", "=", 107),
    ("CC[C@@H](c1ccc(F)c(F)c1)n1c(C(=O)OC)c(-c2ccno2)[nH]c1=S", "×10⁻⁶ cm/s", "=", 195),
    ("CO/N=C(\\C(=O)N[C@@H]1C(=O)N2C(C(=O)O)=C(CSc3nc(C)c(CC(=O)O)s3)CS[C@H]12)c1csc(N)n1", "×10⁻⁶ cm/s", "<", 1),
]

---

conditionDetails: pampa; 60.0 min; 50.0 µM
Overview of reported Papp across a group of compounds:

# compound, censorSymbol, Papp (nm/s)
measured = [
    ("CC(=O)Nc1ccc(C(=O)NC(C)(C)C)cc1", "=", 20),
    ("CCC1=C[C@@H]2CN(C1)Cc1c([nH]c3ccccc13)[C@@](C(=O)OC)(c1cc3c(cc1OC)N(C)[C@H]1[C@@](O)(C(=O)OC)[C@H](OC(C)=O)[C@]4(CC)C=CCN5CC[C@]31[C@@H]54)C2", "=", 300),
    ("C[C@]12CCCN1CC1=NNC(=O)c3cc(F)cc4[nH]c2c1c34", "=", 220),
    ("Cc1cc(=O)c(C(=O)N[C@@H](C(=O)N[C@@H]2C(=O)N3C(C(=O)O)=C(CSc4nnnn4C)CS[C@H]23)c2ccc(O)cc2)c[nH]1", "<", 10),
    ("CC(OC(=O)NCC1(CC(=O)O)CCCCC1)OC(=O)C(C)C (stereo unspecified)", "=", 1430),
    ("OC[C@H]1O[C@@H](n2cnc3c(NCc4ccc(O)cc4)ncnc32)[C@H](O)[C@@H]1O", "<", 10),
    ("COc1cc([C@@H]2c3cc4c(cc3[C@@H](O[C@@H]3O[C@@H]5CO[C@@H](C)O[C@@H]5[C@H](O)[C@@H]3O)[C@H]3COC(=O)[C@H]23)OCO4)cc(OC)c1O", "=", 30),
    ("CCN(CC)CCCN(c1ccccc1)C1Cc2ccccc2C1", "=", 1250),
    ("COc1cc2c(cc1OC)[C@@H](Cc1cc(OC)c(OC)c(OC)c1)[N+](C)(CCCOC(=O)CC/C=C/CCC(=O)OCCC[N+]1(C)CCc3cc(OC)c(OC)cc3[C@H]1Cc1cc(OC)c(OC)c(OC)c1)CC2 (stereo partly specified)", "<", 10),
    ("CN(C)c1cc2c(cc1Sc1nc3c(N)nccc3n1CCNCC(C)(C)C)OCO2", "=", 200),
    ("CCOC(CCCn1cnc2c(c(-c3ccccc3)c(-c3ccccc3)n2Cc2ccccc2)c1=N)OCC", "=", 2280),
    ("COc1ccc(Cn2c(-c3ccccc3)c(-c3ccccc3)c3c(=N)n(CCCCCO)cnc32)cc1", "=", 2060),
    ("Nc1c2ccccc2nc2ccccc12", "=", 360),
    ("CN1N=C2CCN(C(=O)[C@H](COCc3ccccc3)NC(=O)C(C)(C)N)C[C@]2(Cc2ccccc2)C1=O", "=", 150),
    ("NC(=O)c1cccc(-c2cc(O)cc(OC(=O)NC3CCCCC3)c2)c1", "=", 60),
    ("Nc1nc(/C(=C/CC(=O)O)C(=O)N[C@@H]2C(=O)N3C(C(=O)O)=CCS[C@H]23)cs1", "=", 180),
    ("Cc1cc2c(C(N)=O)cccc2n1-c1nc2c(c(NCc3ccccc3)n1)COCC2", "=", 900),
    ("CCC(=O)N1CCN(c2ccc(-n3c(=O)ccc4cnc5ccc(-c6cnc7ccccc7c6)cc5c43)cc2C(F)(F)F)CC1", "=", 1580),
    ("Cc1oc(=O)oc1COC(=O)N1CC[C@@H](N2CC/C(=C\\C3=C(C(=O)O)N4C(=O)[C@@H](NC(=O)/C(=N/O)c5nsc(N)n5)[C@H]4SC3)C2=O)C1", "=", 30),
    ("Cn1cnc2c(F)c(Nc3ccc(Br)cc3F)c(C(=O)NOCCO)cc21", "=", 193),
    ("CC[C@@]1(O)C(=O)OCc2c1cc1n(c2=O)Cc2cc3c(CN(C)C)c(O)ccc3nc2-1", "=", 13.7),
    ("O=C1NC(=O)C(c2ccccc2)(c2ccccc2)N1", "=", 420),
    ("N=c1c2c(-c3ccccc3)c(-c3ccccc3)n(Cc3ccccc3)c2ncn1CCNc1ccncc1", "=", 900),
    ("Cc1nc2c([nH]1)CCN(C(=O)c1ccc(NC(=O)c3ccccc3-c3ccccc3)cc1)c1ccccc1-2", "=", 980),
    ("O=C(NCC1CCOCC1)c1cnc(Nc2ccc(Cl)cc2Cl)nc1C(F)(F)F", "<", 10),
    ("CCNC(=O)c1cc2c(-c3cc(OCCN4CCCC4)c(Cl)cc3Cl)nc(N)nc2s1", "=", 1230),
    ("CN(C)CCn1cnc2c(c(-c3ccccc3)c(-c3ccccc3)n2Cc2ccccc2)c1=N", "=", 760),
    ("CNC1CCC(N(Cc2ccc(OC)c(-c3ccc(C#N)cc3)c2)C(=O)c2sc3ccccc3c2Cl)CC1 (stereo unspecified)", "=", 2340),
    ("CC1(C)S[C@@H]2[C@H](NC(=O)C3(N)CCCCC3)C(=O)N2[C@H]1C(=O)O", "=", 540),
    ("CCOc1ccc(-c2nn3ncccc3c2-c2ccc(S(C)(=O)=O)cc2)cc1", "=", 1110),
    ("CC(=O)OCC1=C(C(=O)O)N2C(=O)[C@@H](NC(=O)[C@H](N)c3ccccc3)[C@H]2SC1", "<", 10),
    ("[O-][n+]1cccc(/C(Cl)=N/OC[C@@H](O)CN2CCCCC2)c1", "=", 20),
    ("Cn1nnnc1Sc1ncnc2scc(-c3ccc(C(=O)OC(C)(C)C)cc3)c12", "=", 720),
    ("COc1ccc(CCn2cnc3c(c(-c4ccccc4)c(-c4ccccc4)n3Cc3ccccc3)c2=N)cc1OC", "=", 2870),
    ("CC(C)C(=O)OCc1cccc(OC(=O)[C@@H]2N3C(=O)[C@@H](NC(=O)Cc4ccccc4)[C@H]3SC2(C)C)c1", "=", 840),
    ("Cc1ccc(-c2c(C(=O)CCl)n(CCCO)c3ncnc(N)c23)cc1", "=", 760),
]

---

conditionDetails: pampa; 60.0 min; 50.0 µM
Documented Papp across a set of compounds
quantity: Papp (×10⁻⁶ cm/s)

# compound, quantity, censorSymbol, dataValue
rows = [
    ("NC(=O)c1cccc(-c2cc(Nc3ccc(OC(F)(F)F)cc3)ncn2)c1", "Papp", "=", 94.4),
    ("C=CC1=C(C(=O)O)N2C(=O)[C@@H](NC(=O)/C(=N/OCC(=O)O)c3csc(N)n3)[C@H]2SC1", "Papp", "=", 4),
    ("Nc1nc2c(c(N3CCNCC3)n1)CCC1=C2[C@@H]2CCCC[C@@H]2O1", "Papp", "=", 30),
    ("COc1ccc2c(c1)C(c1ccc(F)cc1)=C(CN1CCCC1)CO2", "Papp", "=", 100),
    ("Cn1nnnc1Sc1ncnc2scc(-c3ccc(C(F)(F)F)cc3)c12", "Papp", ">", 300),
    ("CCOC(=O)c1cc(=O)c2c(OCC(COc3cccc4oc(C(=O)OCC)cc(=O)c34)OC(=O)[C@@H](N)CCCCN)cccc2o1", "Papp", "<", 1),
    ("COc1ccc(S(=O)(=O)Nc2cccnc2Nc2ccc(O)cc2)cc1", "Papp", "=", 13),
    ("N=c1c2c(-c3ccccc3)cn(Cc3ccccc3)c2ncn1CCNCCO", "Papp", "=", 3),
    ("Cn1nnnc1Sc1ncnc2scc(-c3ccc([N+](=O)[O-])cc3)c12", "Papp", "=", 93),
    ("Cc1onc(-c2c(Cl)cccc2Cl)c1CC(=O)NCc1ccc(OCC(F)(F)F)nc1", "Papp", "=", 204),
    ("CS/C=C/C(=O)O[C@@H]1CCC2=CC(=O)C(=C(C)C)C[C@]2(C)[C@H]1C", "Papp", "=", 77),
    ("COc1ccc(-n2nc(C(F)F)cc2-c2ccc(S(C)=O)cc2)cc1 (centres undefined)", "Papp", "=", 115),
    ("CNC(=O)C1CCN(C(=O)c2ccc(-c3ncc4cnc(-c5ccccc5)cn34)cc2)CC1", "Papp", "=", 12),
    ("CCOC(=O)[C@H](CCc1ccccc1)N[C@@H](C)C(=O)N1C(=O)N(C)C[C@H]1C(=O)O", "Papp", "<", 1),
    ("CC[C@@H]1C[C@]1(NC(=O)[C@@H]1C[C@@H]2CN1C(=O)[C@H](C(C)(C)C)NC(=O)OCC(C)(C)CCCCc1cccc3c1CN(C3)C(=O)O2)C(=O)NS(=O)(=O)C1CC1", "Papp", "=", 10),
    ("O=S(=O)(Nc1cc(Cl)c(Oc2cnc3ccccc3c2)c(Cl)c1)c1ccc(Cl)cc1Cl", "Papp", "=", 24),
    ("CC(/C=C/[C@@H]1C[C@]1(C)c1ccc2c(c1)C(C)(C)CCC2(C)C)=C\\C(=O)O", "Papp", "=", 63),
    ("Cc1ccc(-n2c(C)cc(-c3nnc4n3CCCCC4)c2C)cc1", "Papp", "=", 192),
    ("N#Cc1ccc(C(=O)N2CCC3(CC2)N=C(N)c2c(F)ccc(F)c2N3)cn1", "Papp", "=", 4),
]
